Numbers sourced from patent US20240116946A1.

- Tested target: recombinant SARS-CoV-2 Main protease (Mpro) (Severe acute respiratory syndrome coronavirus 2 (2019-nCoV) (SARS-CoV-2), UniProt P0DTD1)
- Assay: Cov Mpro Biochemical IC50 Assay
- Condition parameters: recombinant SARS-CoV-2 Mpro, fluorogenic peptide substrate; read-out: MPro IC50

Smiles string | Result comparator | IC50 [µM]
COc1ccc(Cl)c(-c2ccc3c(=O)n(-c4cncc5ccc(F)cc45)c(=O)[nH]c3c2)c1 | = | 0.0559
CC(=O)N1CCN(c2ccc3cncc(-n4c(=O)[nH]c5cc(-c6ccccc6Cl)sc5c4=O)c3c2)CC1 | < | 0.00254
O=c1[nH]c2cc(-c3ccccc3)sc2c(=O)n1-c1cncc2ccccc12 | = | 0.267
O=c1[nH]c2cc(-c3c(Cl)cccc3-c3ccc4nccn4c3)ccc2c(=O)n1-c1cncc2ccccc12 | = | 0.011
